Just for reference, patent US4788193A is where these values come from.

Molecular target: β1-receptor (Cavia porcellus)
Construct: isolated guinea pig atrial preparations; from tissue; host or cells: isolated guinea pig atria
Sequence (H0W3H1 1-470): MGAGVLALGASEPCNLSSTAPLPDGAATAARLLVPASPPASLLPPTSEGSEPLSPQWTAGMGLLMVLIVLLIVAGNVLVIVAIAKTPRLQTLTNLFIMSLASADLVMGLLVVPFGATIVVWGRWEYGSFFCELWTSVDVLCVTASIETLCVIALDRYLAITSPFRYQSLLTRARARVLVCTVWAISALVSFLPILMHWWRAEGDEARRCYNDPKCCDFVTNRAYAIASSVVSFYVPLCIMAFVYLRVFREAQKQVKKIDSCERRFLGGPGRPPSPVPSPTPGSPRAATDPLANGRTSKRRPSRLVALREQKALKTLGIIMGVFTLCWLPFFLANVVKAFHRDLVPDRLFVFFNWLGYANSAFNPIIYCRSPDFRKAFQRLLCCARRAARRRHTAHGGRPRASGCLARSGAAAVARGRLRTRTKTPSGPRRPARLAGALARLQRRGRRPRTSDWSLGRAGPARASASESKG
Assay: inhibition of the positive chronotropic actions of isoproterenol in isolated guinea pig atrial preparations (β1)
Assay type: cell-based
Details: isolated guinea pig atria, isoproterenol chronotropic action; read-out: pA2 values β1 (atria) (converted)
Each entry below lists one item and its recorded Kb value.
quantity-measured: Kb (nM)

> print(dat)
                                   compound  quantity.measured   u  test.result
1  CN(C)CCNCC(O)COc1ccccc1C#N (stereo not drawn) [N(CH3)2]                 Kb  nM         43.7
2  N#Cc1ccccc1OCC(O)CNCCN1CCOCC1 (stereo not drawn)                 Kb  nM         15.5
3  N#Cc1ccccc1OCC(O)CNCCc1ccccn1 (stereo not drawn)                 Kb  nM         34.7
4  N#Cc1ccccc1OCC(O)CNCCc1ccncc1 (stereo not drawn)                 Kb  nM         74.1
5  N#Cc1ccccc1OCC(O)CNCCN1CCNCC1 (stereo not drawn)                 Kb  nM         25.7
6  N#Cc1ccccc1OCC(O)CNCCc1cccnc1 (stereo not drawn)                 Kb  nM         23.4
